Reported Kd by item:
Target: Protein kinase C zeta type (Homo sapiens)
Sequence (Q05513 whole entry): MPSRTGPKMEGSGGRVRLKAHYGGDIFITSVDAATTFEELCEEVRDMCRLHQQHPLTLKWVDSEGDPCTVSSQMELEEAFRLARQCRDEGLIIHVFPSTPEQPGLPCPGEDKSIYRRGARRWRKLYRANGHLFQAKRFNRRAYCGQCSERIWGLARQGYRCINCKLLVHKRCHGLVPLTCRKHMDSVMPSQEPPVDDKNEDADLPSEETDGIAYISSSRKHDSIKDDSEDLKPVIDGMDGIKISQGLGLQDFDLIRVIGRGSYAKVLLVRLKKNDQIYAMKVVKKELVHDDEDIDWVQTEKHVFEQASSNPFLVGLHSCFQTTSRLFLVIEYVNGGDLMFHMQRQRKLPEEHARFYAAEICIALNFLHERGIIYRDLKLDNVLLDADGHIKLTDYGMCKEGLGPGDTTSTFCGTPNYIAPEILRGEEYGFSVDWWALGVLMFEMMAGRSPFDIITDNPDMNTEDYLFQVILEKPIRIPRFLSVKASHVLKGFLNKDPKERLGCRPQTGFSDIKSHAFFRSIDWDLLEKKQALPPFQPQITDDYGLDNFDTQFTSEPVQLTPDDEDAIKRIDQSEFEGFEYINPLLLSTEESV
Assay: Binding affinity to recombinant full-length N-terminal His-FLAG-GST-tagged PRKCZ (unknown origin) expressed in baculovirus infected Sf9 insect cells incubated for 1 hr by TR-FRET assay
The reply should contain only the number, in µM.

Look up Kd for this molecule: CO[C@@H]1[C@H](N(C)CCOCCOCCOCCNC(=O)CCC2=[N+]3C(=Cc4c(C)cc(C)n4[B-]3(F)F)C=C2)C[C@H]2O[C@]1(C)n1c3ccccc3c3c4c(c5c6ccccc6n2c5c31)C(=O)NC4 1.35

Fill in the blank: the reported Kd of CO[C@@H]1[C@H](NCCOCCOCCOCCNC(=O)CCC2=[N+]3C(=Cc4c(C)cc(C)n4[B-]3(F)F)C=C2)C[C@H]2O[C@]1(C)n1c3ccccc3c3c4c(c5c6ccccc6n2c5c31)C(=O)NC4 is ____. 1.25

====

Molecular target: Ephrin type-A receptor 7 (Homo sapiens, UniProt Q15375)
Sequence (Q15375 whole entry, the tested form may be a part): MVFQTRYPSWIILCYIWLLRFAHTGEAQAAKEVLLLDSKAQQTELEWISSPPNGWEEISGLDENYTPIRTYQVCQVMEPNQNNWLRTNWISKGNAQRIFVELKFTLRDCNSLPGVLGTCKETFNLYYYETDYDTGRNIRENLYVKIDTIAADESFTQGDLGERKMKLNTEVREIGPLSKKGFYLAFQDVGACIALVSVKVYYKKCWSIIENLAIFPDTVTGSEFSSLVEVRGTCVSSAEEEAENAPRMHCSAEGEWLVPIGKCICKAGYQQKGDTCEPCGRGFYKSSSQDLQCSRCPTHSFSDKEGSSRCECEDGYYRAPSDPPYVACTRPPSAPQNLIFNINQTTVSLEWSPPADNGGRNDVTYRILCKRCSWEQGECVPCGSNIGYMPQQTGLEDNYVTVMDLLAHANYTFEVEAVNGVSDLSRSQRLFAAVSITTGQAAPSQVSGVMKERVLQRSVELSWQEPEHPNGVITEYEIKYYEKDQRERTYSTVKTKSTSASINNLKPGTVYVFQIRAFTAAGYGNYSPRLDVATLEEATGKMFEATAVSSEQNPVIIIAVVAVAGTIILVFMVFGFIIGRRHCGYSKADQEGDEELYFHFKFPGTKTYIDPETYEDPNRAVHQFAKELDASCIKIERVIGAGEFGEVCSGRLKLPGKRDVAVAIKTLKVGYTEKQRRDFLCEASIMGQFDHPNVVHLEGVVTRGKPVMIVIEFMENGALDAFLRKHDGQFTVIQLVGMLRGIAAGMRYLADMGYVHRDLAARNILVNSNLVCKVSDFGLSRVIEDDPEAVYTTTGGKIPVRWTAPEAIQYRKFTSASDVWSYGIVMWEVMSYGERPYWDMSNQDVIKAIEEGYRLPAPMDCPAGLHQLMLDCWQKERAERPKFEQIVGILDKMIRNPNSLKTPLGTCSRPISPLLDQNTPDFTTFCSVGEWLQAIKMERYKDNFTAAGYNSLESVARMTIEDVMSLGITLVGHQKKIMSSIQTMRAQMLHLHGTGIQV
Assay: Binding affinity to recombinant N-terminal His-FLAG-GST-tagged EPHA7 (unknown origin) ( 595 to 998 residues) expressed in baculovirus infected Sf9 insect cells incubated for 1 hr by TR-FRET assay
The following compounds are shown together with reported pKd values.
// pKd: -log10(molar conc.)

# get_value(readout='pKd', item= CO[C@@H]1[C@H](N(C)CCOCCOCCOCCNC(=O)CCC2=[N+]3C(=Cc4c(C)cc(C)n4[B-]3(F)F)C=C2)C[C@H]2O[C@]1(C)n1c3ccccc3c3c4c(c5c6ccccc6n2c5c31)C(=O)NC4 ) 6.05

Give its pKd value. Item: CO[C@@H]1[C@H](NCCOCCOCCOCCNC(=O)CCC2=[N+]3C(=Cc4c(C)cc(C)n4[B-]3(F)F)C=C2)C[C@H]2O[C@]1(C)n1c3ccccc3c3c4c(c5c6ccccc6n2c5c31)C(=O)NC4 6.12

====

Target: Vascular endothelial growth factor receptor 2 (Homo sapiens)
Sequence (P35968 whole entry, the tested form may be a part): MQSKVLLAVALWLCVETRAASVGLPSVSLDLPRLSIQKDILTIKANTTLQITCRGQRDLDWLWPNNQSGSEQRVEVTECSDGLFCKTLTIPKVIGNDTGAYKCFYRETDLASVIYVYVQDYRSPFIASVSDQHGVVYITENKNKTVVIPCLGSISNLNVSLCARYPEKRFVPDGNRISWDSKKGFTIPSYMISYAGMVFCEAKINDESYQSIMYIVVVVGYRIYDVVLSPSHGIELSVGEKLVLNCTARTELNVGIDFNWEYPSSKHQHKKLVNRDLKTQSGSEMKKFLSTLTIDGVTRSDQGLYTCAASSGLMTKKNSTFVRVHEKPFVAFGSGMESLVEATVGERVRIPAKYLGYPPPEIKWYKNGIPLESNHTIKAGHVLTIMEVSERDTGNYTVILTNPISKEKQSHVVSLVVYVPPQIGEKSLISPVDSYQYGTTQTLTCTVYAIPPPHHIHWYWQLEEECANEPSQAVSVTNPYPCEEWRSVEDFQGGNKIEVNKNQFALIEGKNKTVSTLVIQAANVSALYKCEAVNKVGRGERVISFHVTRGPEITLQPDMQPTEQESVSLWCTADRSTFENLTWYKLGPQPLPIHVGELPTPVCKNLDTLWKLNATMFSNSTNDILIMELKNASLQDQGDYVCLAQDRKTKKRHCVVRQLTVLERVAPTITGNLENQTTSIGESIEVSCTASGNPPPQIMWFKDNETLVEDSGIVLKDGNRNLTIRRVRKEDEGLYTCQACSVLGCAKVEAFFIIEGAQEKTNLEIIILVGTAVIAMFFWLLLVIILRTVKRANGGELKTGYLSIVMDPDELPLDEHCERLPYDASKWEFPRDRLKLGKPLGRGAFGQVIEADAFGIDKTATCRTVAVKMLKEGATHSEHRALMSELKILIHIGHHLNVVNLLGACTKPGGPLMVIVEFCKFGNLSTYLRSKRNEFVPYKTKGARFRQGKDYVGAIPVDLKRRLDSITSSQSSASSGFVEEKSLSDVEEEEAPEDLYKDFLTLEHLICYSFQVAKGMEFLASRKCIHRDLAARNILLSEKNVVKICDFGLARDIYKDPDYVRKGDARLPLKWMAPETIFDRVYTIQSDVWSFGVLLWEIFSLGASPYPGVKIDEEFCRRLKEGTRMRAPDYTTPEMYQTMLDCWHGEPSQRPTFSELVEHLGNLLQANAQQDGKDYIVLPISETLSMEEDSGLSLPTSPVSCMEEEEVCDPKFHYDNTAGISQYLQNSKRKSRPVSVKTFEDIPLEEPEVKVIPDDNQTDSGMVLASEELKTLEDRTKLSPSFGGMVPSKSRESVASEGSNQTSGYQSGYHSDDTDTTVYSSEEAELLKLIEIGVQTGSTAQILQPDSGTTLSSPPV
Test: Binding affinity to recombinant human full length N-terminal GST-tagged KDR (790 to 1356 residues) expressed in baculovirus expression system using CSKtide as substrate incubated for 1 hr by TR-FRET assay
Kd values for the compounds below.
Note: unit nM is implicit; provide only the numeric part.

{"columns": ["Smiles Repr", "Unit Tag", "Kd"],
 "data": [
  ["CO[C@@H]1[C@H](NCCOCCOCCOCCNC(=O)CCC2=[N+]3C(=Cc4c(C)cc(C)n4[B-]3(F)F)C=C2)C[C@H]2O[C@]1(C)n1c3ccccc3c3c4c(c5c6ccccc6n2c5c31)C(=O)NC4", "nM", 193]
]}

Next:
Which Kd value belongs to CO[C@@H]1[C@H](N(C)CCOCCOCCOCCNC(=O)CCC2=[N+]3C(=Cc4c(C)cc(C)n4[B-]3(F)F)C=C2)C[C@H]2O[C@]1(C)n1c3ccccc3c3c4c(c5c6ccccc6n2c5c31)C(=O)NC4 ? 135

====

Target: Ephrin type-A receptor 1 (Homo sapiens, UniProt P21709)
Sequence (P21709 whole entry, the tested form may be a part): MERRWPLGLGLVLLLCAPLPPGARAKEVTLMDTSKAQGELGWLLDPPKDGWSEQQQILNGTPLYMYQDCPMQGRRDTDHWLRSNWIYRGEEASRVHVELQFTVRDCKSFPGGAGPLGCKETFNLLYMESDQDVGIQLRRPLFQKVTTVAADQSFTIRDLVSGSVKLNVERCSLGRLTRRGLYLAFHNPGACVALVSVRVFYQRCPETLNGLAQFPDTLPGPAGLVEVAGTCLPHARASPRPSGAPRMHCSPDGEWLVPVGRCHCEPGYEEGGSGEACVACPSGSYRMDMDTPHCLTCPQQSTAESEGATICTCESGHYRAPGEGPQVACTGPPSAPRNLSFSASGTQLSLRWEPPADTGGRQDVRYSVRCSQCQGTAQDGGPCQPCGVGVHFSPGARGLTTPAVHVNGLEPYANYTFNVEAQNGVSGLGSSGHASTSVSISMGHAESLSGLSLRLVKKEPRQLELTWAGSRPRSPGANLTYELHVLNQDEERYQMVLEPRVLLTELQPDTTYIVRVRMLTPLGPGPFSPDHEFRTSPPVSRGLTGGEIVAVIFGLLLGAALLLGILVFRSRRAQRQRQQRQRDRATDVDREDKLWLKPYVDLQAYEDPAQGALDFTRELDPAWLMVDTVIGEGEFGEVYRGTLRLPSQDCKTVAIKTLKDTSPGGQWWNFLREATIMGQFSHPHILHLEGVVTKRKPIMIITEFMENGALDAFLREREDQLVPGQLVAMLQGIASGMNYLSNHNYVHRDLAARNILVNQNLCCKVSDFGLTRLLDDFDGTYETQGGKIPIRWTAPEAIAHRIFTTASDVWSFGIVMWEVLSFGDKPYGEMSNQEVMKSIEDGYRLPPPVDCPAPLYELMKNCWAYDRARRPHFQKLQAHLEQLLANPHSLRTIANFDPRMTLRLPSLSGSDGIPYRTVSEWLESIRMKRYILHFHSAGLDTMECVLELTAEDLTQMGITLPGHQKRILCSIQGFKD
Assay: Binding affinity to recombinant full-length N-terminal His-FLAG-GST-tagged EPHA1 (unknown origin) (586 to 976 residues) expressed in baculovirus infected Sf9 insect cells incubated for 1 hr by TR-FRET assay
// reported Kd for each item listed
Give a bare numeral; the unit µM is implied.

Field request: Kd | item: CO[C@@H]1[C@H](NCCOCCOCCOCCNC(=O)CCC2=[N+]3C(=Cc4c(C)cc(C)n4[B-]3(F)F)C=C2)C[C@H]2O[C@]1(C)n1c3ccccc3c3c4c(c5c6ccccc6n2c5c31)C(=O)NC4 0.586

Fill in: Kd of CO[C@@H]1[C@H](N(C)CCOCCOCCOCCNC(=O)CCC2=[N+]3C(=Cc4c(C)cc(C)n4[B-]3(F)F)C=C2)C[C@H]2O[C@]1(C)n1c3ccccc3c3c4c(c5c6ccccc6n2c5c31)C(=O)NC4 is ___ 0.588
